tested on: NCI-H647; experiment: relative viability (nuclei count vs DMSO), 5 days (fraction); higher = more cells survive; conditions: first compound 50 µM
observable: relative viability
Please respond with just the number, no unit label.

Examples from the recorded data:
O=C(O)CCCCC(CCSCc1ccccc1)SCc1ccccc1 (centres undefined) [CPI-613] + CC1(C)CCC(c2ccc(Cl)cc2)=C(CN2CCN(c3ccc(C(=O)NS(=O)(=O)c4ccc(N[C@H](CCN5CCOCC5)CSc5ccccc5)c(S(=O)(=O)C(F)(F)F)c4)cc3)CC2)C1 [Navitoclax] (partner 0.5 µM): 0.963
O=C(O)CCCCC(CCSCc1ccccc1)SCc1ccccc1 (centres undefined) [CPI-613] + Nc1ncn([C@H]2C[C@H](O)[C@@H](CO)O2)c(=O)n1 [Decitabine] (partner 2 µM): 0.352
O=C(O)CCCCC(CCSCc1ccccc1)SCc1ccccc1 (centres undefined) [CPI-613] + CC(=O)c1c(C)c2cnc(Nc3ccc(N4CCNCC4)cn3)nc2n(C2CCCC2)c1=O [Palbociclib] (partner 0.5 µM): 0.316

// relative viability value for O=C(O)CCCCC(CCSCc1ccccc1)SCc1ccccc1 (centres undefined) [CPI-613] + N=C(N)NC(=N)NCCc1ccccc1 [Phenformin] (partner 250 µM) : 0.501

Ref: the supplement of paper PMC10307832
